Measured values drawn from ChEMBL document CHEMBL4002576 for this set.

molecular target: UniProtKB P22303; experiment: Inhibition of recombinant human AChE expressed in HEK293 cells using acetylthiocholine iodide as substrate pretreated for 5 mins followed by substrate addition measured after 5 mins by spectrophotometry based Ellman method; details: read-out: IC50
Sequence (P22303 whole entry): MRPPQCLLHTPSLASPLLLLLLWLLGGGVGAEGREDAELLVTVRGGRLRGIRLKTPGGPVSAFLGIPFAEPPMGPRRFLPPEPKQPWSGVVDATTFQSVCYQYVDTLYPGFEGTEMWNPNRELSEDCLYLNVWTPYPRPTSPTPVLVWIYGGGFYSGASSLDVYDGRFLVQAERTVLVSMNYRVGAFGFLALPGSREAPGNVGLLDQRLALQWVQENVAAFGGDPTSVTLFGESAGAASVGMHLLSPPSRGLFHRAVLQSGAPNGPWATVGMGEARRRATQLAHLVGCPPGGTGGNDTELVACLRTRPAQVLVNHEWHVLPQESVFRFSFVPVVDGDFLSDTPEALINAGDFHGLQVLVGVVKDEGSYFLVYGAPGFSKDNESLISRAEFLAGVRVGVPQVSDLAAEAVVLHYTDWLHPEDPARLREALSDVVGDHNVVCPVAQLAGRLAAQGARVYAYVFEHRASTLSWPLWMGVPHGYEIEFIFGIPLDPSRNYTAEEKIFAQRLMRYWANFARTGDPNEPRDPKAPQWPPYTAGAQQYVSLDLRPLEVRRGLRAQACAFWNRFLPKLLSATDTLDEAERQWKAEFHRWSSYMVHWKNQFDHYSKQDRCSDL
metric.name: pIC50
Answers are plain numbers, as −log10 of the molar value.

Your task in this section: give pIC50 for each listed record.
1. COc1cccc(C2c3ccc4cccnc4c3Oc3nc4c(c(N)c32)CCCC4)c1 (stereo not given)
2. Nc1c2c(nc3c1C(c1ccccc1)c1ccc4cccnc4c1O3)CCCC2 (stereo not given)

Solution:
1: 6.12; 2: 5.76

---

assay: physchem; conditions: PAMPA, pH 7.4
Description: Permeability of the compound at 100 uM at pH 7.4 measured after 6 hrs by PAMPA
metric.name: Papp at 6 h, 100 µM (×10⁻⁶ cm/s)
Answers are plain numbers, in ×10⁻⁶ cm/s.

Exercise: Name the reported Papp at 6 h, 100 µM value associated with the compound COc1cccc(C2c3ccc4cccnc4c3Oc3nc4c(c(N)c32)CCCC4)c1 (stereo unspecified)
Solution: 5.41
